Overview of recorded normalized RNA/DNA level without ligand (log10) for various variants
B1: library; a variant is named by its letters at N, in order (parent)
chain: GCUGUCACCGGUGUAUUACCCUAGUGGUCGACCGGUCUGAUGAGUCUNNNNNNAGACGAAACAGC

variants of: B1; experiment: normalized RNA/DNA level without ligand (relative to sTRSVctl = 100) (log10 (% of sTRSVctl)); ligand: hypoxanthine (xanthine aptamer); higher = less ribozyme self-cleavage, higher mRNA level; conditions: HEK293T, reporter: mCherry (pCS4076), ligand present: no
Reply briefly: the number, and no unit.

1) AGAGAA: 1.69
2) GUCACC: 1.9
3) CUUGUA: 1.83

Lookup: Please report the measured normalized RNA/DNA level without ligand (log10) for CGAGCG
Found: 1.8

Lookup: Report measured normalized RNA/DNA level without ligand (log10); entry is GUCUCC
Found: 1.94

Lookup: Answer with the recorded normalized RNA/DNA level without ligand (log10) for the variant listed here: UUUUAU
Found: 1.85

Lookup: Report measured normalized RNA/DNA level without ligand (log10); entry is CCCCCU
Found: 1.98

Lookup: Provide normalized RNA/DNA level without ligand (log10) value for the following variant: AUAGCC
Found: 1.82

Lookup: Let me know recorded normalized RNA/DNA level without ligand (log10) for AGUGAA , thanks.
Found: 1.66

meta.source: the supplement of paper PMC6757056
